Tested on: SK-MEL-5 melanoma
measurement_protocol: NCI tumour cell line growth inhibition, 48 h
property_label: TGI

Task item: Entry O=C(OCc1ccccc1)N1N=NC2C1C1CC(OCc3ccccc3)(OCc3ccccc3)C2O1 (centres undefined) has what TGI?
Reply: > 100 µM

Task item: Entry CCOC(=O)C(Cc1c(C=O)[nH]c2ccccc12)(NC(=O)c1ccccc1)C(=O)OCC has what TGI?
Reply: 24.5 µM

Task item: Entry CCN(CC)CCOc1cccc2nc3c(cc12)Cn1c-3cc2c(c1=O)COC(=O)C2(O)CC (centres undefined) has what TGI?
Reply: 6.31 µM

Task item: Entry CCn1c2ccccc2c2nnc(NCCCO)nc21 has what TGI?
Reply: > 100 µM

Task item: Entry Cn1c(-c2ccccc2)c2cc3nc4ccccc4nc3cc2c1-c1ccccc1 has what TGI?
Reply: 9.71 µM

Task item: Entry COc1ccc(-c2cc(=O)c3cc(C)cnc3[nH]2)cc1 has what TGI?
Reply: > 100 µM

Task item: Entry O=C(Nc1ccccc1)C(=O)C(C(=O)c1ccccc1F)C1OC(=O)c2ccccc21 (centres undefined) has what TGI?
Reply: > 100 µM

Task item: Entry CCOC(=O)c1nnsc1NC(=O)NN has what TGI?
Reply: > 100 µM

Task item: Entry CCCCCCCC/C=C(\Br)C(O)C(Br)Br (centres undefined) has what TGI?
Reply: 34 µM

Task item: Entry CC(C)CC(NC(=O)C(CSc1ccc([N+](=O)[O-])cc1)Cc1ccccc1)C(=O)Nc1ccccc1 (centres undefined) has what TGI?
Reply: > 100 µM

Task item: Entry Cc1cc(-c2ccc[nH]2)on1 has what TGI?
Reply: > 100 µM

Task item: Entry c1ccc2nc3c(cc2c1)Sc1cc2ccccc2[n+]2c1N3CC2 has what TGI?
Reply: 20 µM

Task item: Entry CN(C)c1ccc(C(C#N)NNC(=O)Cc2ccccc2)cc1 (centres undefined) has what TGI?
Reply: > 100 µM

Task item: Entry COC(=O)C1CC(C(=O)OC)c2nc3cc([N+](=O)[O-])ccc3nc21 (centres undefined) has what TGI?
Reply: > 100 µM

Task item: Entry COC1CC(C)(NC(C)=O)C2OC(c3ccccc3)OCC2O1 (centres undefined) has what TGI?
Reply: > 100 µM

Task item: Entry Cc1cccc2c1CC1(Cc3ccccc3C1=O)C2=O (centres undefined) has what TGI?
Reply: > 100 µM

Task item: Entry S=C(S)N1CCOCC1 has what TGI?
Reply: > 63.9 µM

Task item: Entry CCOc1ccccc1N1CSc2nnc(-c3ccccc3)n2C1 has what TGI?
Reply: > 100 µM

Task item: Entry O=[N+]([O-])C(=C1NCCN1)C(Cl)=C(Cl)Cl has what TGI?
Reply: > 100 µM

---

Tested on: A498 renal
measurement_protocol: NCI tumour cell line growth inhibition, 48 h
property_label: TGI

Task item: Entry NNC(=O)c1n[nH]n(N)c1=S has what TGI?
Reply: > 100 µM

Task item: Entry CC(C)CC(NC(=O)C(CSc1ccc([N+](=O)[O-])cc1)Cc1ccccc1)C(=O)Nc1ccccc1 (stereo not given) has what TGI?
Reply: > 100 µM

Task item: Entry CCn1c2ccccc2c2nnc(NCCCO)nc21 has what TGI?
Reply: > 100 µM

Task item: Entry CCOC(=O)c1ccc2c(c1)nc(-c1ccc(Cl)cc1)n2-c1cc(C(C)(C)C)[nH]n1 has what TGI?
Reply: 6.51 µM

Task item: Entry O=c1cnnc2sc(=S)[nH]n12 has what TGI?
Reply: > 100 µM

---

Give measured TGI for each item. Keep answers brief.
Test system: HOP-62 NSCLC
measurement_protocol: NCI tumour cell line growth inhibition, 48 h

Task item: Entry N#CCC(=O)N/N=C(\CCN1CCCC1)CC(c1ccccc1)c1c(O)c2ccccc2oc1=O (stereo unspecified) has what TGI?
Reply: > 100 µM

Task item: Entry Cc1cc2c(cc1C)[n+](=O)c(C(=O)C(C)(C)C)c(C(F)(F)F)n2[O-] has what TGI?
Reply: 59.1 µM

Task item: Entry CC(=O)Nc1nc2ncc(C=O)nc2c(=O)[nH]1 has what TGI?
Reply: > 100 µM

Task item: Entry OC[C@@H]1CC#C/C=C\C#CC[C@@H]1CO has what TGI?
Reply: > 100 µM

Task item: Entry O=c1ssc2c1Nc1c(ssc1=O)S2 has what TGI?
Reply: 36.4 µM

Task item: Entry NC(N)=N/N=C/c1oc(-c2ccc(S(=O)(=O)O)o2)c(-c2ccc(S(=O)(=O)O)o2)c1[N+](=O)[O-] has what TGI?
Reply: > 100 µM

Task item: Entry Clc1ccc(OCCSCCCCCCCCCCSCCOc2ccc(Cl)cc2)cc1 has what TGI?
Reply: > 100 µM

Task item: Entry CN(C)c1ccc(/C=C(\C#N)c2nc(-c3cc4ccccc4oc3=O)cs2)cc1 has what TGI?
Reply: 15.6 µM

Task item: Entry COc1cc(Nc2c(C#N)[n+]([O-])c3ccccc3[n+]2[O-])cc(OC)c1OC has what TGI?
Reply: > 100 µM

Task item: Entry CC(C)Cc1ccc(C(C)C(=O)NCc2ccc(Cn3c(=O)sn(CCCCl)c3=O)cc2)cc1 (stereo unspecified) has what TGI?
Reply: 2.73 µM

Task item: Entry CC(C)Oc1c(N(Cc2ccccc2)c2ccccc2C2SCCCS2)c(=O)c1=O has what TGI?
Reply: > 100 µM

Task item: Entry O=c1[nH]nc(Cc2ccccc2)n1/N=C/c1ccc(/C=N/n2c(Cc3ccccc3)n[nH]c2=O)cc1 has what TGI?
Reply: > 100 µM

Task item: Entry [N-]=[N+]=NC1=C(C(=O)c2ccccc2)C(=O)c2cccc3cccc1c23 has what TGI?
Reply: 62 µM

Task item: Entry COc1cc(-c2nc3nc(N4CCN(C)CC4)ccc3[nH]2)c(OC)c2[nH]c(CO)nc12 has what TGI?
Reply: > 100 µM

Task item: Entry O=C(O)c1ccc(Cc2ccccc2C(=O)O)cc1 has what TGI?
Reply: > 100 µM

Task item: Entry S=C(S)N1CCOCC1 has what TGI?
Reply: > 100 µM

---

Test system: SK-MEL-2 melanoma
measurement_protocol: NCI tumour cell line growth inhibition, 48 h
property_label: TGI

Task item: Entry C[C@H](NC1=CC(=O)C(N[C@@H](C)[C@H](O)c2ccccc2)=CC1=O)[C@H](O)c1ccccc1 has what TGI?
Reply: > 100 µM

Task item: Entry S=c1sc2c(s1)SCc1cccc(n1)CSc1sc(=S)sc1SCc1cccc(n1)CS2 has what TGI?
Reply: > 100 µM

Task item: Entry CCOc1ccccc1N1CSc2nnc(-c3ccccc3)n2C1 has what TGI?
Reply: > 100 µM

Task item: Entry [N-]=[N+]=NC1=C(C(=O)c2ccccc2)C(=O)c2cccc3cccc1c23 has what TGI?
Reply: 69.6 µM

Task item: Entry O=C(CC(C(=O)c1ccc(F)cc1)c1ccsc1)c1cccs1 (stereo not given) has what TGI?
Reply: > 100 µM

---

Tested on: HCT-116 colon
measurement_protocol: NCI tumour cell line growth inhibition, 48 h
property_label: TGI

Task item: Entry C[C@H](NC1=CC(=O)C(N[C@@H](C)[C@H](O)c2ccccc2)=CC1=O)[C@H](O)c1ccccc1 has what TGI?
Reply: > 100 µM

Task item: Entry CCOC(=O)c1nnsc1NC(=O)NN has what TGI?
Reply: > 100 µM

Task item: Entry CC(C)(c1cn(Cc2ccccc2)c2ccccc12)c1cn(Cc2ccccc2)c2ccccc12 has what TGI?
Reply: > 100 µM

---

Test system: MALME-3M melanoma
measurement_protocol: NCI tumour cell line growth inhibition, 48 h
property_label: TGI

Task item: Entry CC(=O)NNc1nc(C)c(C(=O)NNC(=O)C(=O)Nc2c(C)cccc2C(C)C)s1 has what TGI?
Reply: > 100 µM

Task item: Entry Cc1cc(S(=O)(=O)Nc2n[nH]c(-c3ccc(Cl)cn3)n2)c(S)cc1Cl has what TGI?
Reply: > 100 µM

Task item: Entry Cc1ccc(C2C(C(=O)C(C)(C)C)N2S(=O)(=O)c2ccc(C)cc2)cc1 (centres undefined) has what TGI?
Reply: 49.1 µM

Task item: Entry CC(C)=CC1CC(=O)C1(C)Sc1ccccc1 (centres undefined) has what TGI?
Reply: > 100 µM
